- System: IGROV1 ovarian
- experiment: NCI tumour cell line growth inhibition, 48 h
metric: TGI

molecule: C/C1=C\[C@@H](C)C[C@@H](C)OC(=O)[C@@H](C)NC(=O)[C@H](Cc2ccc(O)c(Br)c2)N(C)C(=O)CNC(=O)[C@H](C)C1
metric: TGI
recorded.result: 0.033 µM
--
molecule: Cn1c(=O)nc2n(-c3ccc(F)c(F)c3)c3ccccc3nc-2c1=O
metric: TGI
recorded.result: 41.4 µM
--
molecule: NCCCNCc1c2ccccc2c(CNCCCN)c2ccccc12
metric: TGI
recorded.result: > 100 µM
--
molecule: CC(=O)OCCCCn1nncc1Cn1ccc(=O)n(Cc2cnnn2CCCCOC(C)=O)c1=O
metric: TGI
recorded.result: > 100 µM
--
molecule: CSc1nc2nccnc2c(=O)[nH]1
metric: TGI
recorded.result: > 100 µM
--
molecule: COc1cc(/C=C2\C[C@H]3[C@@H]4CC=C5C[C@@H](O)CC[C@]5(C)[C@H]4CC[C@]3(C)[C@H]2O)ccc1OCCN1CCCCC1
metric: TGI
recorded.result: > 26.3 µM
--
molecule: CCOc1ccc(Nc2ccnc3cc(Cl)ccc23)cc1
metric: TGI
recorded.result: > 100 µM
--
molecule: COc1ccc(N[C@H](CS(=O)c2ccc(C)cc2)C(F)(F)F)cc1 (stereo partly drawn)
metric: TGI
recorded.result: > 100 µM
--
molecule: CCCNC(=O)Cn1c2c(c3ccccc31)CCCC2
metric: TGI
recorded.result: > 100 µM
--
molecule: CC(C)(C)OC(=O)NC(Cc1ccccc1)C(=S)N1CCCC1 (stereo not drawn)
metric: TGI
recorded.result: > 100 µM
--
molecule: CSc1nc2c(nc(N)n2C2OC(CO)C(O)C(O)C2O)c(=O)[nH]1 (stereo not drawn)
metric: TGI
recorded.result: > 100 µM
--
molecule: CCOC(=O)C(=CNc1ccc(S(N)(=O)=O)cc1)C(=O)OCC
metric: TGI
recorded.result: > 100 µM
--
molecule: CCCCC1Nc2ccccc2-c2ccnc(Cl)c21 (stereo not drawn)
metric: TGI
recorded.result: 47.9 µM
--
molecule: Cc1cn(CC2(CO)CCC2)c(=O)[nH]c1=O
metric: TGI
recorded.result: > 100 µM
--
molecule: COc1cccc(C2SC(C)C(=O)N2NC(=O)C(O)c2ccccc2)c1 (stereo not drawn)
metric: TGI
recorded.result: > 100 µM
--
molecule: COc1cccc(/C=C2\N=C(Cl)OC2=O)c1O
metric: TGI
recorded.result: > 100 µM
--
molecule: CCCCCCCCCCCCCCCCCC1=NC(C)(C)CN1C(C)(C)CO
metric: TGI
recorded.result: 2.6 µM
--
molecule: CSc1ccc(Cc2cc(C(C)(C)C)cc(C(C)(C)C)c2O)cc1
metric: TGI
recorded.result: 26.7 µM
--
molecule: O=C1C2CCCC2N1Cc1ccccc1 (stereo not drawn)
metric: TGI
recorded.result: > 100 µM
--
molecule: N=C1c2ccccc2C(=O)c2c(NCCNCCO)ccc(O)c21
metric: TGI
recorded.result: 46.8 µM
--
molecule: NC1=Nc2ccccc2Sc2nccn21
metric: TGI
recorded.result: > 100 µM
--
molecule: CCc1cc2c(cc1C(=O)CCC(=O)O)CC1(C2)Cc2cc(CC)c(C(=O)CCC(=O)O)cc2C1
metric: TGI
recorded.result: > 100 µM
--
molecule: CN1C(c2ccccc2)CC(=NO)CC1c1ccccc1 (stereo not drawn)
metric: TGI
recorded.result: > 100 µM
